The compounds listed here are annotated with their GoB hCB1.
- targetSystem: hCB1 (Homo sapiens, UniProt P21554)
- Sequence (P21554 whole entry): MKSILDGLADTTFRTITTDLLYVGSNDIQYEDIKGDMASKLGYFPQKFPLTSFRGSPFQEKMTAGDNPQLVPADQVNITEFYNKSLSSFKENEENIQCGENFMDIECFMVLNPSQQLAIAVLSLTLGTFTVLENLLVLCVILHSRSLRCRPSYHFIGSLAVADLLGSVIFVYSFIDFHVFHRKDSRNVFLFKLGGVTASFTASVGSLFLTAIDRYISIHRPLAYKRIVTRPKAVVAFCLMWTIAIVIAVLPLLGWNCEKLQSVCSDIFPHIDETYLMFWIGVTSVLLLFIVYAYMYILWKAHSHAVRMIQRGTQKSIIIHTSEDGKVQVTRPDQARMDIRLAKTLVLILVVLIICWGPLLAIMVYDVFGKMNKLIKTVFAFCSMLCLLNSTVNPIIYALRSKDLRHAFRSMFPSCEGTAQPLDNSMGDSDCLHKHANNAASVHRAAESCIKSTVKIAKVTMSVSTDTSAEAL
- protocolDetails: bioSensAll ebBRET signaling profiling, hCB1
- Assay type: cell-based
- Parameters: host or cells: HEK293SL cells, transient PEI transfection
- conditionSummary: Log [Compound] (M) -8.68787; single replicate values, FigS6a

See these solved cases before continuing.
Cc1cc(C(=O)N(C)C(c2ccccc2)c2ccco2)nn1-c1cccc(C(F)(F)F)c1 (stereo not drawn) :: -4.668
COC(=O)[C@@H]1[C@@H]2CCC[C@@H]2CN1C(=O)c1cc(C)n(-c2cccc(C(F)(F)F)c2)n1 :: -0.2442

Let us move to another entry and its GoB hCB1.
Observed GoB hCB1, hCB1 (Homo sapiens, UniProt P21554), COc1cccc(C(NC(=O)c2cc(C)n(-c3cccc(C(F)(F)F)c3)n2)c2ccco2)c1 (stereo not drawn) : -4.093

====

The molecules listed here are annotated with their GoB hCB1.
- targetSystem: hCB1 (Homo sapiens, UniProt P21554)
- protocolDetails: bioSensAll ebBRET signaling profiling, hCB1
- Type: cell-based
- Parameters: host or cells: HEK293SL cells, transient PEI transfection
- conditionSummary: Log [Compound] (M) -8.22186; single replicate values, FigS6a
Number only, please.

Record summary for Cc1cc(C(=O)N(C)C(c2ccco2)c2ccco2)nn1-c1cccc(C(F)(F)F)c1 [‘4388] : reported GoB hCB1 = -1.989

Record summary for COC(=O)C(NC(=O)c1cc(C)n(-c2cccc(F)c2)n1)c1cccs1 (stereo not shown) [‘51486] : reported GoB hCB1 = -3.517

Record summary for Cc1cc(C(=O)N2CC3(CCC3)[C@H]2[C@@H]2CCCO2)nn1-c1cccc(C(F)(F)F)c1 [‘5490] : reported GoB hCB1 = 0.1334

Record summary for Cc1cc(C(=O)N2CC3(CCC3)[C@H]2[C@H]2CCCO2)nn1-c1cccc(C(F)(F)F)c1 [‘1651] : reported GoB hCB1 = -0.5679

====

- targetSystem: hCB1 (Homo sapiens, UniProt P21554)
- protocolDetails: bioSensAll ebBRET signaling profiling, hCB1
- Format: cell-based
- Design: host or cells: HEK293SL cells, transient PEI transfection
- conditionSummary: Gi1 biosensor; Log [Compound] (M) -9.15521
propertyMeasured: Gi1 hCB1 response
Number only, please.

Cc1cc(C(=O)N2CC3(CCC3)[C@H]2[C@H]2CCCO2)nn1-c1cccc(C(F)(F)F)c1 :: 13.7307
CC(=O)C(c1cccs1)N(C)C(=O)c1cc(C)n(-c2cccc(C(F)(F)F)c2)n1 (stereo not drawn) :: 5.629

Let us move to another entry and its Gi1 hCB1 response.
Record summary for COC(=O)C(NC(=O)c1cc(C)n(-c2cccc(F)c2)n1)c1cccs1 (stereo not drawn) : reported Gi1 hCB1 response = -11.247

====

The compounds listed here are annotated with their Gi1 hCB1.
- targetSystem: hCB1 (Homo sapiens, UniProt P21554)
- protocolDetails: bioSensAll ebBRET signaling profiling, hCB1
- Type: cell-based
- Design: host or cells: HEK293SL cells, transient PEI transfection
- conditionSummary: Log [Compound] (M) -9.15521; single replicate values, FigS6a
Number only, please.

Cc1nc(CC2CC2)oc1-c1nc(Cc2cc3c(cc2Br)OCO3)no1 :: -0.1708
Cc1cc(C(=O)N2CC3(CCC3)[C@H]2[C@H]2CCCO2)nn1-c1cccc(C(F)(F)F)c1 :: 0.4282
COC(=O)[C@@H]1[C@@H]2CCC[C@@H]2CN1C(=O)c1cc(C)n(-c2cccc(Cl)c2)n1 (racemic) :: 1.8
Cc1nn(Cc2ccc(Cl)cc2)c(C)c1C(=O)OCC1CSc2ccccc2O1 (stereo not drawn) :: -1.422
COC(=O)C(NC(=O)c1cc(C)n(-c2cccc(C(F)(F)F)c2)n1)c1cccs1 (stereo not drawn) :: 2.17
COC(=O)[C@@H]1[C@@H]2CC[C@@H]2CN1C(=O)c1cc(C)n(-c2cccc(C(F)(F)F)c2)n1 :: -0.1114
Cc1cc(C(=O)NC(c2ccccc2)c2ccco2)nn1-c1cccc(C#N)c1 (stereo not drawn) :: 0.4436
Cc1cc(C(=O)N(C)C(c2ccco2)c2ccco2)nn1-c1cccc(C(F)(F)F)c1 :: 0.9215
Cc1cc(C(=O)N2CC3(CCC3)[C@H]2[C@@H]2CCCO2)nn1-c1cccc(C(F)(F)F)c1 :: 2.078
Cc1cc(C(=O)N(C)C(c2ccccc2)c2ccco2)nn1-c1cccc(C(F)(F)F)c1 (stereo not drawn) :: 1.045

Record summary for Cc1cc(C(=O)NC(c2ccccc2)c2ccco2)nn1-c1cccc(C(F)(F)F)c1 (stereo not drawn) : reported Gi1 hCB1 = 3.357

Record summary for Cc1cc(C(=O)NC(c2ccco2)c2ccco2)nn1-c1cccc(C(F)(F)F)c1 : reported Gi1 hCB1 = 2.879

====

- targetSystem: hCB1 (Homo sapiens)
- protocolDetails: bioSensAll ebBRET signaling profiling, hCB1
- Format: cell-based
- Parameters: host or cells: HEK293SL cells, transient PEI transfection
- conditionSummary: Log [Compound] (M) -6.31878; single replicate values, FigS6a
The molecules listed here are annotated with their Gi1 hCB1.
Number only, please.

See these solved cases before continuing.
Cc1cc(C(=O)N2CC3(CCC3)[C@H]2[C@@H]2CCCO2)nn1-c1cccc(C(F)(F)F)c1 :: 21.1018
Cc1nn(Cc2ccc(Cl)cc2)c(C)c1C(=O)OCC1CSc2ccccc2O1 (stereo not shown) :: 3.392
COC(=O)[C@@H]1[C@@H]2CC[C@@H]2CN1C(=O)c1cc(C)n(-c2cccc(C(F)(F)F)c2)n1 :: 53.785

Let us move to another entry and its Gi1 hCB1.
Record summary for Brc1cc2c(cc1Cc1noc(-c3cnn(CC4CC4)c3)n1)OCO2 : reported Gi1 hCB1 = -13.0779

====

- targetSystem: hCB1 (Homo sapiens, UniProt P21554)
- protocolDetails: bioSensAll ebBRET signaling profiling, hCB1
- Format: cell-based
- Design: host or cells: HEK293SL cells, transient PEI transfection
- conditionSummary: Log [Compound] (M) -12.8861; single replicate values, FigS6a
The compounds listed here are annotated with their GoB hCB1.
Number only, please.

COC(=O)[C@@H]1[C@@H]2CCC[C@@H]2CN1C(=O)c1cc(C)n(-c2cccc(Cl)c2)n1 (racemic) [‘10010] :: 1.59
Cc1cc(C(=O)N2CC3(CCC3)[C@@H]2[C@H]2CCCO2)nn1-c1cccc(C(F)(F)F)c1 (single isomer, unassigned) [compound 430] :: 4.072

Record summary for COC(=O)C(NC(=O)c1cc(C)n(-c2cccc(C(F)(F)F)c2)n1)c1cccs1 (stereo not drawn) [‘60154] : reported GoB hCB1 = -2.69
